# measured-target: GII.3 VLP
# Assay type: binding, norovirus
# recorded-conditions: GII.3 VLP; 100 μM peptide on SA chip; dissociation 60 sec
measured-quantity: kd
Please report the result as a number followed by the unit.

# count of solved cases: 5
According to the records, this sequence CKARSARGVS [No.288] displays kd of 0.0143 s⁻¹

The value of kd measured for the sequence FVWSRRTGLY [No.205] turned out to be 0.001 s⁻¹

kd measured on FVWRRRAGLY [No.167] = 0.00435 s⁻¹

Data point: RSMSLHVSMT [No.283] ; kd = 0.00715 s⁻¹

Entry under test: RFLVPVVKVM [No.103] . Its kd was 0.017 s⁻¹

Switching to the query record.
Per the records, this sequence ( ANYRWSRSIK [No.263] ) has kd equal to 0.049 s⁻¹

* * *

# measured-target: GII.17 VLP
# Type: binding, norovirus
# recorded-conditions: GII.17 VLP; 100 μM peptide on SA chip; dissociation 60 sec
Values of kd strictly less than 0.009 s⁻¹ map to Met, and values of at least 0.009 s⁻¹ map to Not met.

See these solved cases before continuing.
Input RSMSLHVSMT [No.283] ; condition: kd strictly below 0.009 s⁻¹. Does it hold? Met

API: query returns whether the sequence falls strictly under 0.009 s⁻¹ in kd. Query: FVWRRRAGLY [No.167] Met

Dear colleague, could you confirm whether kd of CKARSARGVS [No.288] falls below 0.009 s⁻¹? Thanks. Met

# check: kd < 0.009 s⁻¹ for ANYRWSRSIK [No.263] Met

Consider the sequence RFLVPVVKVM [No.103] . Is its kd strictly less than 0.009 s⁻¹? Not met

Further cases:
Please determine if FVWSRRTGLY [No.205] is below 0.009 s⁻¹ in terms of kd. Not met

Lab note: confirm whether the reported kd for this sequence is below 0.009 s⁻¹, equality not counting. sequence: VWWGRRISRF [No.302] Not met

* * *

# measured-target: GII.3 VLP
# Type: binding, norovirus
# recorded-conditions: GII.3 VLP 1, 0.1, 0.01, 0.001 mg/mL; 100 μM peptide on SA chip; KD calculated from ka and kd
measured-quantity: Kd (nM)
Give bare numbers, in nM.

Would you mind listing Kd for each of the following sequences?
1. RSMSLHVSMT [No.283]
2. RFLVPVVKVM [No.103]
3. CKARSARGVS [No.288]
4. ANYRWSRSIK [No.263]
5. FVWSRRTGLY [No.205]

1: 0.909; 2: 8.07; 3: 6.86; 4: 57.5; 5: 31.6

The sequence identified as FVWRRRAGLY [No.167] registered its Kd at 1.39

* * *

For each record, write down the corresponding pKd.
# measured-target: GII.17 VLP
# Format: binding, norovirus
# recorded-conditions: GII.17 VLP 1, 0.1, 0.01, 0.001 mg/mL; 100 μM peptide on SA chip; KD calculated from ka and kd
Give bare numbers, as −log10 of the molar value.

With GII.17 VLP as the test system, FVWRRRAGLY [No.167] showed pKd of 9.16

Hey, can you go through the list below and give me pKd for every item?
1. RFLVPVVKVM [No.103]
2. VWWGRRISRF [No.302]
3. ANYRWSRSIK [No.263]
4. FVWSRRTGLY [No.205]
5. RSMSLHVSMT [No.283]
6. CKARSARGVS [No.288]

[8.09, 7.55, 7.72, 6.96, 8.86, 7.92]

All values here come from patent US12378287B2.
